Reference source: the METLIN SMRT retention time set (Domingo-Almenara et al. 2019)

Give RP-LC retention time for every item shown.
- ASSAY SUMMARY: gradient 5% acetonitrile 3 min, to 50% in 2 min, to 85% in 15 min, held 3 min, 100 µL/min
- ASSAY SETUP: column: Zorbax Extend-C18 2.1 x 50 mm; eluents: water / acetonitrile, 0.1% formic acid

RP-LC retention time lookup needed for CN(CC1CCOC1)S(=O)(=O)Cc1cccc(Cl)c1 (centres undefined) , thanks.
804 s

Item CCC1(O)CCC12CCN(C(=O)CC1CCN(C(C)=O)CC1)CC2 (centres undefined) has what recorded RP-LC retention time?
629 s

Value lookup for RP-LC retention time; key = CCCn1cc(CCNS(=O)(=O)c2cccc(OC)c2)c2cccnc21
837 s

Look up RP-LC retention time for this molecule: COC(=O)C1=CN(c2ccc(OC)cc2)c2cc(F)ccc2S1(=O)=O
844 s

Quick one: RP-LC retention time of COc1ccc(-n2c(=O)c(C(=O)Nc3ccc(F)c(F)c3)c(O)c3cccnc32)cc1 ?
983 s

So what's the measured RP-LC retention time for this one? COc1ccc(C(=O)Nc2cc(-c3ccccn3)no2)cc1
784 s

// query RP-LC retention time value for entry Cc1ccc(NC(=O)N2CCC(C(C)C(=O)Nc3ccc(Cl)cc3)CC2)cc1 (centres undefined)
951 s

Fill in the blank: the reported RP-LC retention time of Cc1ncc2c(n1)CCN(C(=O)c1ccccc1Br)C2 is ____.
655 s

Give its RP-LC retention time value. Item: CCOc1ccccc1C(=O)N1CCc2c(c(-c3nc(C4CC4)no3)nn2C)C1
828 s

Fill in: RP-LC retention time of Cc1c(C(=O)NCCCN2CCOCC2)oc2ccc3c(c12)C(O)CC(C)(C)O3 (centres undefined) is ___
612 s

// RP-LC retention time lookup, key: CN(C)CCNC(=O)C1CCN(c2nccnc2Sc2ccccc2)CC1
629 s

Reported RP-LC retention time for O=C(Nc1ccc2c(c1)OCCO2)C1CCCN(c2cnc3nccnc3c2)C1 (centres undefined) : what is it?
689 s

Name the reported RP-LC retention time value associated with the molecule CCc1ccc(S(=O)(=O)Nc2cc(-n3c(C)nc4ccccc4c3=O)ccc2F)s1
797 s

Fill blank: measured RP-LC retention time of the molecule CC1=NS(=O)(=O)N(C)C=C1C(=O)OCc1nc(Cc2cccc(C)c2)no1 is ____.
957 s

Value lookup for RP-LC retention time; key = O=C(CCc1nc2ccccc2n(CC(=O)NC2CCc3ccccc32)c1=O)NC1CCCCC1 (centres undefined)
879 s

Need RP-LC retention time of CC#CCOC(=O)c1c(C)nc2sc3c(c2c1N)CCC(O)C3 (centres undefined) , thanks.
662 s

What does the record list as RP-LC retention time for O=C(Cn1nc(C(=O)N2CCOCC2)c2ccccc21)Nc1cccc(Cl)c1 ?
816 s

Which measured RP-LC retention time value corresponds to Cc1ccsc1CCNC(=O)C1CCN(S(=O)(=O)c2ccc3c(c2)sc(=O)n3C)CC1 ?
872 s

Consider the molecule Cc1noc(C)c1Cc1ccc(C(=O)N2CCC(c3nc(CCOCC4CC4)no3)C2)o1 (centres undefined) and give its measured RP-LC retention time.
784 s

Could you share which RP-LC retention time value was measured for O=C(NCc1csc(-c2ccccc2)n1)C1CCN(S(=O)(=O)c2ccc3[nH]c(=O)oc3c2)CC1 ?
758 s

Please look up its RP-LC retention time: COCCN1CC2(CCN(S(=O)(=O)c3cc(F)cc(F)c3)CC2)C1c1ccccc1 (centres undefined)
718 s

Please look up its RP-LC retention time: COc1cccc(-c2noc(CN3C(=O)COc4ccc(Cl)cc43)n2)c1OC
1020 s

Reported RP-LC retention time for Cc1ccc(CNC(=O)Cn2nc(C)c3sc(-c4ccccc4)nc3c2=O)cc1C : what is it?
968 s

What does the data say about its RP-LC retention time? Entry: CN(C)CCCn1c2c3ccccc3ccc2c2oc(=O)c3ccccc3c21
802 s

// returns reported RP-LC retention time for input O=S(=O)(c1cc(-c2nnc(C3CC3)o2)co1)N1CCc2ccccc2C1
946 s

So what's the measured RP-LC retention time for this one? COCCNC(=O)C1Cn2cccc2C(=O)N1CC(C)C (centres undefined)
624 s

Which RP-LC retention time is listed for O=C(NCc1ccccc1)C1CCN(c2cnc(N3CCCC3)nc2)CC1 ?
639 s

Consider the molecule COc1cc2c(c3oc4cccc(O)c4c(=O)c13)C1C=CO[C@@H]1O2 (some centres undefined) and give its measured RP-LC retention time.
989 s

Could you tell me which RP-LC retention time is on file for CCc1nnc(-c2cn(CC(=O)NCc3cccc(Br)c3)c3ccccc23)o1 ?
867 s

Which RP-LC retention time value belongs to Cc1ccc2ncn(C3CCN(S(=O)(=O)c4ccc(CC(C)C)cc4)CC3)c(=O)c2c1 ?
1150 s

Looking for the measured RP-LC retention time of COc1ccc(CNC(=O)c2cc3sccc3n2C)cc1 , can you help?
894 s

Recorded RP-LC retention time of COc1cc(OC2CCN(C)CC2)ccc1Nc1ncc2c(n1)n(C1CCCC1)c(=O)n2C , please.
654 s

Would you kindly share the measured RP-LC retention time for COc1ccc(-c2nnc(CC(=O)NC3CC3)o2)cc1 ?
640 s

Requested read-out: RP-LC retention time. Entry: O=c1c2cc(-c3ccc(F)cc3)nn2cnn1Cc1nc(-c2ccccc2Br)no1
1140 s

I have this molecule here, CCCn1c(=O)c(C)nc2cc(-c3noc(/C=C/c4ccc(OC)c(OC)c4)n3)ccc21 , and I need its recorded RP-LC retention time.
735 s

Fill in the blank: the reported RP-LC retention time of CCN1CCn2cc(S(=O)(=O)Nc3cccc(C)c3)cc2C1=O is ____.
736 s

Which RP-LC retention time value belongs to CCc1ccc(NC(=O)Cn2nc3cc(C)nc(Nc4ccc(F)c(C)c4)n3c2=O)cc1 ?
1160 s

Report RP-LC retention time for Cc1noc(C)c1CC(=O)NCCc1noc(C2CC2)n1 please.
628 s

Requested field: RP-LC retention time. Item: CCn1cc(-c2nc(C(=O)NCc3cccc(C)c3)cs2)c2cccnc21
1060 s
